Sourced from patent US20130177572A1

target: T1, human PDGFRβ (human, UniProt P09619 33-530, limits assumed); test: ELISA: plate coated with 2 ug/mL human PDGFRβ or human Fc, in vitro translated crude lysate diluted 1:3, anti-flag-HRP, OD450
T1 construct: also called hPDGFRβ; recombinant human PDGFRβ
T1 sequence (P09619 33-530 limits assumed): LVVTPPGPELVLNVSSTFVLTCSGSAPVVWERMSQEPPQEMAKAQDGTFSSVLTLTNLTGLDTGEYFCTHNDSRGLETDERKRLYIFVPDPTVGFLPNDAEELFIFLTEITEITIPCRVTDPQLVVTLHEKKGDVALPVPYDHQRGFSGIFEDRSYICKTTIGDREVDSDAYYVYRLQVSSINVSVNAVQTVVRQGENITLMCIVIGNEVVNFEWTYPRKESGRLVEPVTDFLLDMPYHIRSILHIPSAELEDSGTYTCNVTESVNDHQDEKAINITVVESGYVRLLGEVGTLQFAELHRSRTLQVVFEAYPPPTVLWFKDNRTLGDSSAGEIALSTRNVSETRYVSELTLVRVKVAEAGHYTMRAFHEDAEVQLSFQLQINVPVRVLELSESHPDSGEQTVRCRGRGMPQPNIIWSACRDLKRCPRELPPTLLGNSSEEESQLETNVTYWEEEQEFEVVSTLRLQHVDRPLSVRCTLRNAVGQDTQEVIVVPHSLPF

binder | binding result
C7 scFv (scFv, V domains shown, VL of the second round pool paired with XB1511 VH) VH: QVQLVQSGAEVKKPGSSVKVSCKASGGTFSSYAISWVRQAPGQGLEWMGGIIPIFGTANYAQKFQGRVTITADESTSTAYMELSSLRSEDTAVYYCAIHGGDRSYWGQGTLVTVSS VL: DIVMTQTPLSLSVTPGQPASISCKSSQSLLHSDGKTHLFWYLQRPGQSPQLLIYEVSGRFSGVSERFSGSGSGTDFTLKISRVEAEDVGVYYCMQGLHIPHTFGQGTKVEIK | binds
G8 scFv (scFv, V domains shown, VL of the second round pool paired with XB1511 VH) VH: QVQLVQSGAEVKKPGSSVKVSCKASGGTFSSYAISWVRQAPGQGLEWMGGIIPIFGTANYAQKFQGRVTITADESTSTAYMELSSLRSEDTAVYYCAIHGGDRSYWGQGTLVTVSS VL: QSVLTQSPGTLSLSPGDRATLSCRASQSLSGTYLAWYQQKPGQAPRLLIYDASNRAAGIPKRFSGSGSRTDFTLTISRVDPADSAVYYCQQYGSALLTFGGGTKVTVL | binds
A8 scFv (scFv, V domains shown, VL of the second round pool paired with XB1511 VH) VH: QVQLVQSGAEVKKPGSSVKVSCKASGGTFSSYAISWVRQAPGQGLEWMGGIIPIFGTANYAQKFQGRVTITADESTSTAYMELSSLRSEDTAVYYCAIHGGDRSYWGQGTLVTVSS VL: QAGLTQSPDFQSVTPKERVTITCRASRYIGSNLHWYQQKPDQPPKLLIKLASQSFSGVPPRFSGGGSGTDFTLTINGLEAEDAATYYCHQTGSFPYTFGQGTKLTVL | binds
